Measured values drawn from patent US5789404A for this set.

IC50 reference
molecular target: dopamine D2 receptors (Rattus norvegicus); experiment: biochemical; assay type: binding; conditions: ^3 H-spiroperidol 0.5 nM; rat corpus striatum membranes; read-out: Dopamin D2 binding ^3 H spiroperidol, IC50
Sequence (P61169 whole entry): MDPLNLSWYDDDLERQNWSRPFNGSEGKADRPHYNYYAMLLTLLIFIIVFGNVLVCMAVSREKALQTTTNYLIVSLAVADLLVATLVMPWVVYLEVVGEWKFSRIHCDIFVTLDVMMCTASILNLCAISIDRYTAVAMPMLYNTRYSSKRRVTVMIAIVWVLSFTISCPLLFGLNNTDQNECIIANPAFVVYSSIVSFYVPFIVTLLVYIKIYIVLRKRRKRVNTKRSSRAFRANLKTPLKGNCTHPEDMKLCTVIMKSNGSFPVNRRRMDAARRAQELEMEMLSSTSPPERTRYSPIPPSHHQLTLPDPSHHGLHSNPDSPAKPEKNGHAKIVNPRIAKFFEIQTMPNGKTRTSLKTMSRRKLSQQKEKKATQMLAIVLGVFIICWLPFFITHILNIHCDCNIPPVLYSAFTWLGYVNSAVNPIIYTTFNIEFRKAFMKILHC
Counter-ions that a name gives are not always drawn.
Field format: number, assumed nM, no unit text.

compound: CN(C)CCOc1cn(-c2ccc(F)cc2)c2cc(Cl)ccc12 [Compound 4j]
reportedMetric: IC50
recordedValue: 63

compound: CN(CCOc1cn(-c2ccc(F)cc2)c2ccc(Cl)cc12)CCN1CCNC1=O [Compound 4b, Maleate]
reportedMetric: IC50
recordedValue: 5.8

-- ask Item CN1CCC[C@H]1COc1cn(-c2ccc(F)cc2)c2ccc(Cl)cc12 [Compound 7a] has what recorded IC50?
-- reply 30

-- ask And for CN1CCCC1COc1cn(-c2ccc(F)cc2)c2ccc(Cl)cc12 (stereo in doubt) [Compound 7b] ?
-- reply 18

-- ask And for Fc1ccc(-n2cc(OCCN3CCCCC3)c3ccc(Cl)cc32)cc1 [Compound 4p] ?
-- reply 17

-- ask And for Fc1ccc(-n2cc(OCCN3CCOCC3)c3cc(Cl)ccc32)cc1 [Compound 4f, maleate] ?
-- reply 27

-- ask And for CN(CCOc1cn(-c2ccc(F)cc2)c2cc(Cl)ccc12)CCN1CCNC1=O [Compound 4h] ?
-- reply 200

-- ask And for C#CCN(CCOc1cn(-c2ccc(F)cc2)c2ccc(Cl)cc12)CCN1CCNC1=O [Compound 4d] ?
-- reply 190

-- ask And for CN(C)Cc1cn(-c2ccc(F)cc2)c2ccc(Cl)cc12 [Compound 13a, Maleate] ?
-- reply 19

-- ask And for CNC(=O)C1CCN(CCOc2cn(-c3ccc(F)cc3)c3ccc(Cl)cc23)CC1 [Compound 4n] ?
-- reply 4.7

-- ask And for CN(CCCc1cn(-c2ccc(F)cc2)c2ccc(Cl)cc12)CCN1CCNC1=O [Compound 3b, fumarate] ?
-- reply 190

-- ask And for CN(C)CCOc1cn(-c2ccc(F)cc2)c2ccc(Cl)cc12 [Compound 4a] ?
-- reply 2.9

-- ask And for O=C1NCCN1CCC1CCN(CCOc2cn(-c3ccc(F)cc3)c3ccc(Cl)cc23)CC1 [Compound 4k] ?
-- reply 2.6

-- ask And for CN(CCN1CCNC1=O)Cc1cn(-c2ccc(F)cc2)c2ccc(Cl)cc12 [Compound 4s] ?
-- reply 22

-- ask And for Fc1ccc(-n2cc(CCCN3CCOCC3)c3cc(Cl)ccc32)cc1 [Compound 3c, maleate] ?
-- reply 26

-- ask And for CN(C)CCCc1cn(-c2ccc(F)cc2)c2ccc(Cl)cc12 [Compound 3a, fumarate] ?
-- reply 42

-- ask And for Fc1ccc(-n2cc(OCCN3CCCC3)c3ccc(Cl)cc32)cc1 [Compound 4o] ?
-- reply 23

-- ask And for Fc1ccc(-n2cc(OCCN3CCCCC3)c3cc(Cl)ccc32)cc1 [Compound 4e] ?
-- reply 2.3

-- ask And for CN(CCc1cn(-c2ccc(F)cc2)c2ccc(Cl)cc12)CCN1CCNC1=O [Compound 4v, maleate] ?
-- reply 25
